Protocol Description: Therapeutic Index measured as the MTD/MED ratio compared to that of compound 3
Experimental Setup: read-out: Therapeutic index
*1 amine or outer side, *2 acyl side, *3 side chain or, on linkers, in order; H or OH if unused. Where a SMILES comes first, the peptide text is derived from it. Bridges are numbered along the chain shown (N, C = ends). Roman numbers before positions name the chains, in order. [ ]: non-standard residue; d: D form. Actinocin(9to1) = Cc1c2oc3c(C)ccc(C(=O)[*:1])c3nc-2c(C(=O)[*:2])c(N)c1=O; NMeV = CN[C@H](C(=O)O)C(C)C; Sar = CNCC(=O)O
Consider the following compounds; for each one, report its selectivity ratio.

Below, each entry is followed by its recorded selectivity ratio result.
[[record]]
compound = "Cc1c2oc3c(C)c(OCC(O)CO)cc(C(=O)N[C@@H]4C(=O)N[C@H](C(C)C)C(=O)N5CCC[C@H]5C(=O)N(C)CC(=O)N(C)[C@@H](C(C)C)C(=O)O[C@@H]4C)c3nc-2c(C(=O)N[C@@H]2C(=O)N[C@H](C(C)C)C(=O)N3CCC[C@H]3C(=O)N(C)CC(=O)N(C)[C@@H](C(C)C)C(=O)O[C@@H]2C)c(N)c1=O (some centres undefined)"
recorded_metric = "selectivity ratio"
observed_value = 12

[[record]]
compound = "Cc1c2oc3c(C)c(O)c(N)c(C(=O)N[C@@H]4C(=O)N[C@H](C(C)C)C(=O)N5CCC[C@H]5C(=O)N(C)CC(=O)N(C)[C@@H](C(C)C)C(=O)O[C@@H]4C)c3nc-2c(C(=O)N[C@@H]2C(=O)N[C@H](C(C)C)C(=O)N3CCC[C@H]3C(=O)N(C)CC(=O)N(C)[C@@H](C(C)C)C(=O)O[C@@H]2C)cc1=O"
recorded_metric = "selectivity ratio"
observed_value = 15

[[record]]
compound = "Cc1c2oc3c(C)ccc(C(=O)N[C@@H]4C(=O)N[C@H](C(C)C)C(=O)N5CCC[C@H]5C(=O)N(C)CC(=O)N(C)[C@@H](C(C)C)C(=O)O[C@@H]4C)c3nc-2c(C(=O)N[C@@H]2C(=O)N[C@H](C(C)C)C(=O)N3CCC[C@H]3C(=O)N(C)CC(=O)N(C)[C@@H](C(C)C)C(=O)O[C@@H]2C)c(N)c1=O [DACTINOMYCIN] (I: T[dV]P[Sar][NMeV] / II: T[dV]P[Sar][NMeV]; ester I:1-I:C, II:1-II:C; linker I:N-II:N via Actinocin(9to1))"
recorded_metric = "selectivity ratio"
observed_value = 4


Which selectivity ratio reading was recorded for the compound Cc1c2oc3c(C)c(OCC4CO4)cc(C(=O)N[C@@H]4C(=O)N[C@H](C(C)C)C(=O)N5CCC[C@H]5C(=O)N(C)CC(=O)N(C)[C@@H](C(C)C)C(=O)O[C@@H]4C)c3nc-2c(C(=O)N[C@@H]2C(=O)N[C@H](C(C)C)C(=O)N3CCC[C@H]3C(=O)N(C)CC(=O)N(C)[C@@H](C(C)C)C(=O)O[C@@H]2C)c(N)c1=O (some centres undefined) ?
72

====

Protocol Description: Therapeutic Index measured as the MTD/MED ratio compared to that of compound 4
Experimental Setup: read-out: Therapeutic index
*1 amine or outer side, *2 acyl side, *3 side chain or, on linkers, in order; H or OH if unused. Where a SMILES comes first, the peptide text is derived from it. Bridges are numbered along the chain shown (N, C = ends). Roman numbers before positions name the chains, in order. [ ]: non-standard residue; d: D form. Actinocin(9to1) = Cc1c2oc3c(C)ccc(C(=O)[*:1])c3nc-2c(C(=O)[*:2])c(N)c1=O; NMeV = CN[C@H](C(=O)O)C(C)C; Sar = CNCC(=O)O
Recorded Metric: selectivity ratio
Answers are plain numbers.

[[record]]
compound = "Cc1c2oc3c(C)c(OCC4CO4)cc(C(=O)N[C@@H]4C(=O)N[C@H](C(C)C)C(=O)N5CCC[C@H]5C(=O)N(C)CC(=O)N(C)[C@@H](C(C)C)C(=O)O[C@@H]4C)c3nc-2c(C(=O)N[C@@H]2C(=O)N[C@H](C(C)C)C(=O)N3CCC[C@H]3C(=O)N(C)CC(=O)N(C)[C@@H](C(C)C)C(=O)O[C@@H]2C)c(N)c1=O (some centres undefined)"
observed_value = 43

[[record]]
compound = "Cc1c2oc3c(C)ccc(C(=O)N[C@@H]4C(=O)N[C@H](C(C)C)C(=O)N5CCC[C@H]5C(=O)N(C)CC(=O)N(C)[C@@H](C(C)C)C(=O)O[C@@H]4C)c3nc-2c(C(=O)N[C@@H]2C(=O)N[C@H](C(C)C)C(=O)N3CCC[C@H]3C(=O)N(C)CC(=O)N(C)[C@@H](C(C)C)C(=O)O[C@@H]2C)c(N)c1=O [DACTINOMYCIN] (I: T[dV]P[Sar][NMeV] / II: T[dV]P[Sar][NMeV]; ester I:1-I:C, II:1-II:C; linker I:N-II:N via Actinocin(9to1))"
observed_value = 3

[[record]]
compound = "Cc1c2oc3c(C)c(O)c(N)c(C(=O)N[C@@H]4C(=O)N[C@H](C(C)C)C(=O)N5CCC[C@H]5C(=O)N(C)CC(=O)N(C)[C@@H](C(C)C)C(=O)O[C@@H]4C)c3nc-2c(C(=O)N[C@@H]2C(=O)N[C@H](C(C)C)C(=O)N3CCC[C@H]3C(=O)N(C)CC(=O)N(C)[C@@H](C(C)C)C(=O)O[C@@H]2C)cc1=O"
observed_value = 10


Which selectivity ratio reading was recorded for the compound Cc1c2oc3c(C)c(OCC(O)CO)cc(C(=O)N[C@@H]4C(=O)N[C@H](C(C)C)C(=O)N5CCC[C@H]5C(=O)N(C)CC(=O)N(C)[C@@H](C(C)C)C(=O)O[C@@H]4C)c3nc-2c(C(=O)N[C@@H]2C(=O)N[C@H](C(C)C)C(=O)N3CCC[C@H]3C(=O)N(C)CC(=O)N(C)[C@@H](C(C)C)C(=O)O[C@@H]2C)c(N)c1=O (some centres undefined) ?
6

====

Protocol Description: In vitro growth inhibitory activity for effect on melting temperature of DNA was determined
Recorded Metric: DNA melting temperature shift (ΔTm) (°C)
Give bare numbers, in °C.

Below, each entry is followed by its recorded DNA melting temperature shift (ΔTm) result.
[[record]]
compound = "Cc1c2oc3c(C)c(OCC(O)CO)cc(C(=O)N[C@H]4C(=O)N[C@@H](C(C)C)C(=O)N5CCC[C@H]5C(=O)N(C)CC(=O)N(C)[C@@H](C(C)C)C(=O)O[C@H]4C)c3nc-2c(C(=O)N[C@H]2C(=O)N[C@@H](C(C)C)C(=O)N3CCC[C@H]3C(=O)N(C)CC(=O)N(C)[C@@H](C(C)C)C(=O)O[C@H]2C)c(N)c1=O (stereo partly drawn)"
recorded_metric = "DNA melting temperature shift (ΔTm)"
observed_value = 5.1

[[record]]
compound = "Cc1c2oc3c(C)c(O)c(N)c(C(=O)N[C@H]4C(=O)N[C@@H](C(C)C)C(=O)N5CCC[C@H]5C(=O)N(C)CC(=O)N(C)[C@H](C(C)C)C(=O)O[C@H]4C)c3nc-2c(C(=O)N[C@@H]2C(=O)N[C@H](C(C)C)C(=O)N3CCC[C@@H]3C(=O)N(C)CC(=O)N(C)[C@@H](C(C)C)C(=O)O[C@@H]2C)cc1=O"
recorded_metric = "DNA melting temperature shift (ΔTm)"
observed_value = 6.7


Next compound, DNA melting temperature shift (ΔTm) to be filled in.
Which DNA melting temperature shift (ΔTm) reading was recorded for the compound Cc1c2oc3c(C)c(OCC4CO4)cc(C(=O)N[C@H]4C(=O)N[C@@H](C(C)C)C(=O)N5CCC[C@H]5C(=O)N(C)CC(=O)N(C)[C@@H](C(C)C)C(=O)O[C@H]4C)c3nc-2c(C(=O)N[C@H]2C(=O)N[C@@H](C(C)C)C(=O)N3CCC[C@H]3C(=O)N(C)CC(=O)N(C)[C@@H](C(C)C)C(=O)O[C@H]2C)c(N)c1=O (stereo partly drawn) ?
6

====

Consider the following compounds; for each one, report its DNA melting temperature shift (ΔTm).
Protocol Description: In vitro growth inhibitory activity for effect on melting temperature of DNA was determined
*1 amine or outer side, *2 acyl side, *3 side chain or, on linkers, in order; H or OH if unused. Where a SMILES comes first, the peptide text is derived from it. Bridges are numbered along the chain shown (N, C = ends). Roman numbers before positions name the chains, in order. [ ]: non-standard residue; d: D form. Actinocin(9to1) = Cc1c2oc3c(C)ccc(C(=O)[*:1])c3nc-2c(C(=O)[*:2])c(N)c1=O; NMeV = CN[C@H](C(=O)O)C(C)C; Sar = CNCC(=O)O
Answers are plain numbers, in °C.

[[record]]
compound = "CCN(CC)C(=O)c1c2nc3c(C(=O)N(CC)CC)cc(OCC4CO4)c(C)c3oc-2c(C)c(=O)c1N (centres undefined)"
observed_value = 0

[[record]]
compound = "CCN(CC)C(=O)c1c2nc3c(C(=O)N(CC)CC)ccc(C)c3oc-2c(C)c(=O)c1N"
observed_value = 0

[[record]]
compound = "Cc1c2oc3c(C)ccc(C(=O)N[C@@H]4C(=O)N[C@H](C(C)C)C(=O)N5CCC[C@H]5C(=O)N(C)CC(=O)N(C)[C@@H](C(C)C)C(=O)O[C@@H]4C)c3nc-2c(C(=O)N[C@@H]2C(=O)N[C@H](C(C)C)C(=O)N3CCC[C@H]3C(=O)N(C)CC(=O)N(C)[C@@H](C(C)C)C(=O)O[C@@H]2C)c(N)c1=O [DACTINOMYCIN] (I: T[dV]P[Sar][NMeV] / II: T[dV]P[Sar][NMeV]; ester I:1-I:C, II:1-II:C; linker I:N-II:N via Actinocin(9to1))"
observed_value = 7.1


Next compound, DNA melting temperature shift (ΔTm) to be filled in.
Which DNA melting temperature shift (ΔTm) reading was recorded for the compound CCN(CC)C(=O)c1c2nc3c(C(=O)N(CC)CC)cc(OCC(O)CO)c(C)c3oc-2c(C)c(=O)c1N (centres undefined) ?
0
